biological target: Kras and SOS1 (biotin-tagged human Kras loaded with GDP, His-tagged human SOS1) (Homo sapiens, UniProt P01116, G12D); construct: made in house; host or cells: E. coli (stated for Kras only); assay: Protein-protein interaction inhibition between Kras and SOS1 (KrasGl2D-SOS PPI) using AlphaScreen; type: binding; conditions: AlphaScreen; biotin-tagged human Kras loaded with GDP, His-tagged human SOS1; read-out: KRAS G12D-SOS PPI IC50
Sequence (P01116 1-188 isoform P01116-2 G12D): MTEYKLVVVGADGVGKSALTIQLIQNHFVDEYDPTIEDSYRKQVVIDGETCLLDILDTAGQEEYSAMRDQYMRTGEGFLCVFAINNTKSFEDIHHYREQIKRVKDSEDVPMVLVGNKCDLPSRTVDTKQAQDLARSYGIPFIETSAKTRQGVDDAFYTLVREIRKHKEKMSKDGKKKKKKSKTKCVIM
pIC50: −log10 of the molar value. Starred links: 1 amine or outer side, 2 acyl side, 3 side chain; linkers in the order of their positions; H or OH if unused. Positions of bridges follow the written chain, without caps; N, C: chain ends. Non-standard residues stand in square brackets, D forms with d. Residues, ends and D or L forms follow the SMILES beside them. *: point of attachment. hPhe(3-Cl-4-CF3) = N[C@@H](CCc1ccc(C(F)(F)F)c(Cl)c1)C(=O)O; hPhe(4-CF3) = N[C@@H](CCc1ccc(C(F)(F)F)cc1)C(=O)O; NEtPhe(4-Cl) = CCN[C@@H](Cc1ccc(Cl)cc1)C(=O)O; NMePhe(4-Cl) = CN[C@@H](Cc1ccc(Cl)cc1)C(=O)O; hPhe(4-Cl) = N[C@@H](CCc1ccc(Cl)cc1)C(=O)O; NMeGly(cPent) = CN[C@H](C(=O)O)C1CCCC1; Phe(3-I) = N[C@@H](Cc1cccc(I)c1)C(=O)O; X26 = O=C([C@@H]1CCC[C@H]1N[*:1])[*:2]; NMeCha = CN[C@@H](CC1CCCCC1)C(=O)O; NMeF = CN[C@@H](Cc1ccccc1)C(=O)O; NMeD = CN[C@@H](CC(=O)O)C(=O)O; NMeL = CN[C@@H](CC(C)C)C(=O)O; NMeV = CN[C@H](C(=O)O)C(C)C; d(β3hA) = C[C@@H](N)CC(=O)O; NMeA = CN[C@@H](C)C(=O)O; NMeAib = CNC(C)(C)C(=O)O; Nle = CCCC[C@H](N)C(=O)O; Piperidide = C1CCN(*)CC1; Pyrrolidide = C1CCN(*)C1; dNMeA = CN[C@H](C)C(=O)O; Ac5c = NC1(C(=O)O)CCCC1; Aze = O=C(O)[C@@H]1CCN1; Nva = CCC[C@H](N)C(=O)O; X14 = CC1(C)CCN(*)C1; NEtG = CCNCC(=O)O; Sar = CNCC(=O)O
Criterion: pIC50 meeting or surpassing 8. Met: met. Not met: not met.

Example cases with answers are listed next.
{"columns": ["compound", "class-name"],
 "data": [
  ["CCCC[C@@H]1NC(=O)[C@H](Cc2cccc(I)c2)NC(=O)CN(C)C(=O)[C@H](Cc2ccc(Cl)cc2)N(C)C(=O)CN(C)C(=O)CN(C)C(=O)[C@H]([C@@H](C)CC)NC(=O)[C@H](CC(C)C)N(C)C(=O)C[C@@H](C(=O)N2CCCC2)N(C)C(=O)[C@H](CCC)NC(=O)C(C)(C)N(C)C1=O [Compound 1410] ([NMeL]I[Sar][Sar][NMePhe(4-Cl)][Sar][Phe(3-I)][Nle][NMeAib][Nva][NMeD]-Pyrrolidide; lactam N-11)", "not met"],
  ["CCCC[C@@H]1NC(=O)[C@H](Cc2cccc(I)c2)NC(=O)CN(C)C(=O)[C@H](Cc2ccc(Cl)cc2)N(CC)C(=O)CN(C)C(=O)CN(C)C(=O)[C@H]([C@@H](C)CC)NC(=O)[C@H](CC(C)C)N(C)C(=O)C[C@@H](C(=O)N2CCCCC2)N(C)C(=O)[C@H](CC(C)C)NC(=O)C(C)(C)N(C)C1=O [Compound 423] ([NMeL]I[Sar][Sar][NEtPhe(4-Cl)][Sar][Phe(3-I)][Nle][NMeAib]L[NMeD]-Piperidide; lactam N-11)", "not met"],
  ["CC[C@H](C)[C@@H]1NC(=O)[C@H](CC(C)C)N(C)C(=O)C[C@@H](C(=O)N2CCCCC2)N(C)C(=O)[C@H](C(C)C)N(C)C(=O)C2(CCCC2)NC(=O)[C@@H]2CCCN2C(=O)[C@H](CCc2ccc(Cl)cc2)NC(=O)CN(C)C(=O)[C@H](CC2CCCCC2)N(C)C(=O)CN(C)C(=O)[C@@H]2CCN2C1=O [Compound 112] ([NMeL]I[Aze][Sar][NMeCha][Sar][hPhe(4-Cl)]P[Ac5c][NMeV][NMeD]-Piperidide; lactam N-11)", "not met"],
  ["CC[C@H](C)[C@@H]1NC(=O)[C@H](CC(C)C)N(C)C(=O)C[C@@H](C(=O)N2CCC(C)(C)C2)N(C)C(=O)[C@H](C(C)C)N(C)C(=O)C2(CCCC2)NC(=O)[C@@H]2CCCN2C(=O)[C@H](CCc2ccc(C(F)(F)F)c(Cl)c2)NC(=O)CN(C)C(=O)[C@H](CC2CCCCC2)N(C)C(=O)[C@@H]2CCN2C(=O)[C@H](C)N(C)C1=O [Compound 1323] ([NMeL]I[NMeA][Aze][NMeCha][Sar][hPhe(3-Cl-4-CF3)]P[Ac5c][NMeV][NMeD]-X14; lactam N-11)", "met"],
  ["CC[C@H](C)[C@@H]1NC(=O)[C@H](C)N(C)C(=O)C[C@@H](C)NC(=O)[C@H](C(C)C)N(C)C(=O)C2(CCCC2)NC(=O)[C@@H]2CCCN2C(=O)[C@H](CCc2ccc(C(F)(F)F)c(Cl)c2)NC(=O)[C@@H](C)N(C)C(=O)[C@H](CC2CCCCC2)N(C)C(=O)[C@@H]2CCCN2C(=O)CN(CC)C1=O [Compound 2014] (cyclo([Ac5c][NMeV][d(β3hA)][NMeA]I[NEtG]P[NMeCha][dNMeA][hPhe(3-Cl-4-CF3)]P))", "not met"]
]}

Is pIC50 at least 8? Consider CC[C@H](C)[C@@H]1NC(=O)[C@H](C)N(C)C(=O)[C@@H]2CCC[C@H]2NC(=O)[C@H](CC(C)C)N(C)C(=O)[C@H](Cc2ccccc2)N(C)C(=O)[C@@H]2CCCN2C(=O)[C@H](CCc2ccc(C(F)(F)F)cc2)NC(=O)CN(C)C(=O)[C@H](Cc2ccc(Cl)cc2)N(C)C(=O)CN(C)C(=O)CN(C)C1=O [Compound 25] (cyclo(I[Sar][Sar][NMePhe(4-Cl)][Sar][hPhe(4-CF3)]P[NMeF][NMeL][X26][NMeA]))
not met

Is pIC50 at least 8? Consider CC[C@H](C)[C@@H]1NC(=O)[C@H](C)N(C)C(=O)C[C@@H](C)NC(=O)[C@H](C2CCCC2)N(C)C(=O)C2(CCCC2)NC(=O)[C@@H]2CCCN2C(=O)[C@H](CCc2ccc(C(F)(F)F)c(Cl)c2)NC(=O)CN(C)C(=O)[C@H](Cc2ccc(Cl)cc2)N(C)C(=O)[C@@H]2CCCN2C(=O)CN(C)C1=O [Compound 549] (cyclo([Ac5c][NMeGly(cPent)][d(β3hA)][NMeA]I[Sar]P[NMePhe(4-Cl)][Sar][hPhe(3-Cl-4-CF3)]P))
met

====

biological target: Kras and SOS1 (biotin-tagged human Kras loaded with GDP, His-tagged human SOS1) (Homo sapiens, UniProt P01116, G12D); construct: made in house; host or cells: E. coli (stated for Kras only); assay: Protein-protein interaction inhibition between Kras and SOS1 (KrasGl2D-SOS PPI) using AlphaScreen; format: binding; settings: AlphaScreen; biotin-tagged human Kras loaded with GDP, His-tagged human SOS1; read-out: KRAS G12D-SOS PPI IC50
Starred links: 1 amine or outer side, 2 acyl side, 3 side chain; linkers in the order of their positions; H or OH if unused. Non-standard residues stand in square brackets, D forms with d. Residues, ends and D or L forms follow the SMILES beside them. hPhe(3,5-F2-4-CF3) = N[C@@H](CCc1cc(F)c(C(F)(F)F)c(F)c1)C(=O)O; hPhe(3-Cl-4-CF3) = N[C@@H](CCc1ccc(C(F)(F)F)c(Cl)c1)C(=O)O; NMePhe(4-CF3) = CN[C@@H](Cc1ccc(C(F)(F)F)cc1)C(=O)O; X23 = CN([C@@H](Cc1ccccc1OC(F)(F)F)C(=O)[*:2])[*:1]; hPhe(4-Cl) = N[C@@H](CCc1ccc(Cl)cc1)C(=O)O; NMedβ3hAla = C[C@H](CC(=O)[*:2])N(C)[*:1]; Pro(4,4-F2) = O=C(O)[C@@H]1CC(F)(F)CN1; NMeCha = CN[C@@H](CC1CCCCC1)C(=O)O; NMeI = CC[C@H](C)[C@H](NC)C(=O)O; NMeL = CN[C@@H](CC(C)C)C(=O)O; NMeV = CN[C@H](C(=O)O)C(C)C; NMeA = CN[C@@H](C)C(=O)O; Ac5c = NC1(C(=O)O)CCCC1; Aze = O=C(O)[C@@H]1CCN1; Thp = NC1(C(=O)O)CCOCC1; Sar = CNCC(=O)O
quantity-kind: pIC50
// pIC50: -log10(molar conc.)

# annotated cases, reported pIC50 shown
{"columns": ["compound", "pIC50"],
 "data": [
  ["CC[C@H](C)[C@@H]1NC(=O)[C@H](CC(C)C)N(C)C(=O)C[C@@H](C)N(C)C(=O)[C@H](C(C)C)N(C)C(=O)C2(CCCC2)NC(=O)[C@@H]2CCCN2C(=O)[C@H](CCc2ccc(C(F)(F)F)c(Cl)c2)NC(=O)CN(C)C(=O)[C@H](Cc2ccccc2OC(F)(F)F)N(C)C(=O)CN(C)C(=O)CN(C)C1=O [Compound 1633] (cyclo([Ac5c][NMeV][NMedβ3hAla][NMeL]I[Sar][Sar][X23][Sar][hPhe(3-Cl-4-CF3)]P))", 7.30],
  ["CC[C@H](C)[C@@H]1NC(=O)[C@H](CC(C)C)N(C)C(=O)C[C@@H](C)N(C)C(=O)[C@H]([C@@H](C)CC)N(C)C(=O)C2(CCCC2)NC(=O)[C@@H]2CC(F)(F)CN2C(=O)[C@H](CCc2cc(F)c(C(F)(F)F)c(F)c2)NC(=O)CN(C)C(=O)[C@H](Cc2ccc(C(F)(F)F)cc2)N(C)C(=O)[C@@H]2CCN2C(=O)[C@H](C)N(C)C1=O [Compound 863] (cyclo([Ac5c][NMeI][NMedβ3hAla][NMeL]I[NMeA][Aze][NMePhe(4-CF3)][Sar][hPhe(3,5-F2-4-CF3)][Pro(4,4-F2)]))", 8.60]
]}

Now for the compound whose pIC50 we want.
pIC50 recorded for this compound, CC[C@H](C)[C@@H]1NC(=O)[C@H](CC(C)C)N(C)C(=O)C[C@@H](C)N(C)C(=O)[C@H](CC(C)C)N(C)C(=O)C2(CCOCC2)NC(=O)[C@@H]2CCCN2C(=O)[C@H](CCc2ccc(Cl)cc2)NC(=O)CN(C)C(=O)[C@H](CC2CCCCC2)N(C)C(=O)CN(C)C(=O)CN(C)C1=O [Compound 802] (cyclo(I[Sar][Sar][NMeCha][Sar][hPhe(4-Cl)]P[Thp][NMeL][NMedβ3hAla][NMeL])) , is 6.41
